# Test system: 885512-296-R-J2-PDC complex spheroid growth, % test/control
# Assay Procedure: Anticancer human tumor 885512-296-R-J2-PDC patient-derived breast carcinoma cell line growth inhibition [AhR]
# Condition Details: second compound 10 µM; first compound 0.00316 µM; stronger effect = lower value
Catalogue of viability, T/C readings, one per entry.

>  <Compound>
Cn1ncnc1C1c2n[nH]c(=O)c3cc(F)cc(c23)NC1c1ccc(F)cc1 (configuration not stated) + Cc1cncc(-c2nc(NCCc3c[nH]c4ccccc34)c3ncn(C(C)C)c3n2)c1

>  <viability, T/C, %>
21.3

$$$$
>  <Compound>
Nc1ncn(C2CC(O)C(CO)O2)c(=O)n1 (configuration not stated) + Cc1ccccc1N=Nc1ccc(NC(=O)c2ccnn2C)c(C)c1

>  <viability, T/C, %>
50.6

$$$$
>  <Compound>
Nc1ncn(C2CC(O)C(CO)O2)c(=O)n1 (configuration not stated) + CC(CO)NC(=O)c1cc(-c2ccc(Cl)cc2)nn(-c2cnn(C)c2)c1=O

>  <viability, T/C, %>
88.9

$$$$
>  <Compound>
CC[C@@]1(O)C(=O)OCc2c1cc1n(c2=O)Cc2cc3c(CN(C)C)c(O)ccc3nc2-1 + Cc1cncc(-c2nc(NCCc3c[nH]c4ccccc34)c3ncn(C(C)C)c3n2)c1

>  <viability, T/C, %>
20.9

$$$$
>  <Compound>
CC[C@@]1(O)C(=O)OCc2c1cc1n(c2=O)Cc2cc3c(CN(C)C)c(O)ccc3nc2-1 + Cc1ccccc1N=Nc1ccc(NC(=O)c2ccnn2C)c(C)c1

>  <viability, T/C, %>
46.3

$$$$
>  <Compound>
CC1COCCN1c1cc(-c2ccnn2C)c2ccnc(-c3ccn[nH]3)c2n1 (configuration not stated) + Cc1cncc(-c2nc(NCCc3c[nH]c4ccccc34)c3ncn(C(C)C)c3n2)c1

>  <viability, T/C, %>
13.3

$$$$
>  <Compound>
Cn1ncnc1C1c2n[nH]c(=O)c3cc(F)cc(c23)NC1c1ccc(F)cc1 (configuration not stated) + CC(CO)NC(=O)c1cc(-c2ccc(Cl)cc2)nn(-c2cnn(C)c2)c1=O

>  <viability, T/C, %>
88.9

$$$$
>  <Compound>
Cn1ncnc1C1c2n[nH]c(=O)c3cc(F)cc(c23)NC1c1ccc(F)cc1 (configuration not stated) + Cc1ccccc1N=Nc1ccc(NC(=O)c2ccnn2C)c(C)c1

>  <viability, T/C, %>
46.5

$$$$
>  <Compound>
CC1COCCN1c1cc(-c2ccnn2C)c2ccnc(-c3ccn[nH]3)c2n1 (configuration not stated) + Cc1ccccc1N=Nc1ccc(NC(=O)c2ccnn2C)c(C)c1

>  <viability, T/C, %>
57.1

$$$$
>  <Compound>
CC[C@@]1(O)C(=O)OCc2c1cc1n(c2=O)Cc2cc3c(CN(C)C)c(O)ccc3nc2-1 + CC(CO)NC(=O)c1cc(-c2ccc(Cl)cc2)nn(-c2cnn(C)c2)c1=O

>  <viability, T/C, %>
75.1

$$$$
>  <Compound>
CC1COCCN1c1cc(-c2ccnn2C)c2ccnc(-c3ccn[nH]3)c2n1 (configuration not stated) + CC(CO)NC(=O)c1cc(-c2ccc(Cl)cc2)nn(-c2cnn(C)c2)c1=O

>  <viability, T/C, %>
90.5

$$$$
>  <Compound>
Nc1ncn(C2CC(O)C(CO)O2)c(=O)n1 (configuration not stated) + Cc1cncc(-c2nc(NCCc3c[nH]c4ccccc34)c3ncn(C(C)C)c3n2)c1

>  <viability, T/C, %>
18.5

$$$$

* * *

# Test system: 885512-296-R-J2-PDC complex spheroid growth, % test/control
# Assay Procedure: Anticancer human tumor 885512-296-R-J2-PDC cell line growth inhibition [AhR];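 note: spheroids exposed to compounds for seven days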
# Condition Details: curve of first compound; second compound 1 µM
pIC50: −log10 of the molar value.

>  <Compound>
COc1cccc2c1C(=O)c1c(O)c3c(c(O)c1C2=O)CC(O)(C(=O)CO)CC3OC1CC(N)C(O)C(C)O1 (stereo not drawn) + CC(CO)NC(=O)c1cc(-c2ccc(Cl)cc2)nn(-c2cnn(C)c2)c1=O

>  <pIC50>
> 7.50

$$$$
>  <Compound>
CC(C)c1c(-c2ccccc2)nc2c(C#N)c[nH]n2c1=O + Cc1ccccc1N=Nc1ccc(NC(=O)c2ccnn2C)c(C)c1

>  <pIC50>
< 5.00

$$$$
>  <Compound>
CCN(c1cc(-c2ccc(CN3CCOCC3)cc2)cc(C(=O)NCc2c(C)cc(C)[nH]c2=O)c1C)C1CCOCC1 + Cc1cncc(-c2nc(NCCc3c[nH]c4ccccc34)c3ncn(C(C)C)c3n2)c1

>  <pIC50>
< 5.52

$$$$

* * *

Catalogue of viability, T/C readings, one per entry.
# Tested on: 885512-296-R-J2-PDC complex spheroid growth, % test/control
# Assay Procedure: Anticancer human tumor 885512-296-R-J2-PDC cell line growth inhibition [AhR];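 note: spheroids exposed to compounds for seven days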
# Condition Details: second compound 0.1 µM; first compound 0.1 µM; stronger effect = lower value
Measured Attribute: viability, T/C (%)

>  <Compound>
CC[C@@]1(O)C(=O)OCc2c1cc1n(c2=O)Cc2cc3c(CN(C)C)c(O)ccc3nc2-1 + CC(CO)NC(=O)c1cc(-c2ccc(Cl)cc2)nn(-c2cnn(C)c2)c1=O

>  <Experimental Value>
4.56

$$$$
>  <Compound>
COc1cc(Nc2ncc3c(n2)-c2ccc(Cl)cc2C(c2c(F)cccc2OC)=NC3)ccc1C(=O)O + CC(CO)NC(=O)c1cc(-c2ccc(Cl)cc2)nn(-c2cnn(C)c2)c1=O

>  <Experimental Value>
48.3

$$$$
>  <Compound>
CC1(C)CCC(CN2CCN(c3ccc(C(=O)NS(=O)(=O)c4ccc(NCC5CCOCC5)c([N+](=O)[O-])c4)c(Oc4cnc5[nH]ccc5c4)c3)CC2)=C(c2ccc(Cl)cc2)C1 + Cc1ccccc1N=Nc1ccc(NC(=O)c2ccnn2C)c(C)c1

>  <Experimental Value>
85.4

$$$$
>  <Compound>
COc1ccc([C@@H](O)c2cc(-c3ncnc4cc(N5CCOCC5)ccc34)c(F)cc2Cl)nn1 + Cc1cncc(-c2nc(NCCc3c[nH]c4ccccc34)c3ncn(C(C)C)c3n2)c1

>  <Experimental Value>
93.2

$$$$
>  <Compound>
Nc1ccccc1NC(=O)c1ccc(CNC(=O)OCc2cccnc2)cc1 + Cc1ccccc1N=Nc1ccc(NC(=O)c2ccnn2C)c(C)c1

>  <Experimental Value>
89.5

$$$$

* * *

# Tested on: 885512-296-R-J2-PDC complex spheroid growth, % test/control
# Assay Procedure: Anticancer human tumor 885512-296-R-J2-PDC cell line growth inhibition [AhR];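 note: spheroids exposed to compounds for seven days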
# Condition Details: second compound 3.16 µM; first compound 0.000949 µM; stronger effect = lower value
Catalogue of viability, T/C readings, one per entry.

>  <Compound>
Nc1ncn(C2CC(O)C(CO)S2)c(=O)n1 (stereo not drawn) + Cc1ccccc1N=Nc1ccc(NC(=O)c2ccnn2C)c(C)c1

>  <Unit String>
%

>  <viability, T/C>
96.9

$$$$
>  <Compound>
CCc1c2c(nc3ccc(O)cc13)-c1cc3c(c(=O)n1C2)COC(=O)[C@]3(O)CC + CC(CO)NC(=O)c1cc(-c2ccc(Cl)cc2)nn(-c2cnn(C)c2)c1=O

>  <Unit String>
%

>  <viability, T/C>
10.8

$$$$
>  <Compound>
CC(C)CC(NC(=O)C(Cc1ccccc1)NC(=O)c1cnccn1)B(O)O (stereo not drawn) + Cc1cncc(-c2nc(NCCc3c[nH]c4ccccc34)c3ncn(C(C)C)c3n2)c1

>  <Unit String>
%

>  <viability, T/C>
52.5

$$$$

* * *

# System: 885512-296-R-J2-PDC complex spheroid growth, % test/control
# Assay Procedure: Anticancer human tumor 885512-296-R-J2-PDC cell line growth inhibition [AhR];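 note: spheroids exposed to compounds for seven days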
# Condition Details: second compound 3.16 µM; first compound 0.001 µM; stronger effect = lower value
Catalogue of viability, T/C readings, one per entry.

>  <Compound>
CC[C@@]1(O)C(=O)OCc2c1cc1n(c2=O)Cc2cc3c(CN(C)C)c(O)ccc3nc2-1 + CC(CO)NC(=O)c1cc(-c2ccc(Cl)cc2)nn(-c2cnn(C)c2)c1=O

>  <viability, T/C [%]>
106

$$$$
>  <Compound>
Cn1ncnc1C1c2n[nH]c(=O)c3cc(F)cc(c23)NC1c1ccc(F)cc1 (stereo unspecified) + CC(CO)NC(=O)c1cc(-c2ccc(Cl)cc2)nn(-c2cnn(C)c2)c1=O

>  <viability, T/C [%]>
101

$$$$
>  <Compound>
Cn1ncnc1C1c2n[nH]c(=O)c3cc(F)cc(c23)NC1c1ccc(F)cc1 (stereo unspecified) + Cc1cncc(-c2nc(NCCc3c[nH]c4ccccc34)c3ncn(C(C)C)c3n2)c1

>  <viability, T/C [%]>
58.4

$$$$
>  <Compound>
CC[C@@]1(O)C(=O)OCc2c1cc1n(c2=O)Cc2cc3c(CN(C)C)c(O)ccc3nc2-1 + Cc1cncc(-c2nc(NCCc3c[nH]c4ccccc34)c3ncn(C(C)C)c3n2)c1

>  <viability, T/C [%]>
60.1

$$$$
>  <Compound>
CC[C@@]1(O)C(=O)OCc2c1cc1n(c2=O)Cc2cc3c(CN(C)C)c(O)ccc3nc2-1 + Cc1ccccc1N=Nc1ccc(NC(=O)c2ccnn2C)c(C)c1

>  <viability, T/C [%]>
95.4

$$$$
>  <Compound>
Cn1ncnc1C1c2n[nH]c(=O)c3cc(F)cc(c23)NC1c1ccc(F)cc1 (stereo unspecified) + Cc1ccccc1N=Nc1ccc(NC(=O)c2ccnn2C)c(C)c1

>  <viability, T/C [%]>
87.5

$$$$
